- Organism: Rattus norvegicus
- ASSAY_NOTES: Open TG-GATES - Regimen: Single
- Type: toxicity, organism-based, Sprague-Dawley
- Set-up: regimen Single, gender Male, age 6 weeks
- CONDITION_SET: in vivo, po, 0 mg/kg, 3 h, tissue Blood, route gavage, dose level Control
What RBC was measured for each of the following?
One number for each entry, in x10_4/ul.

Form field RBC, entry O=C(N[C@H](CO)[C@H](O)c1ccc([N+](=O)[O-])cc1)C(Cl)Cl : 607

Per the records, this molecule ( CCc1oc2ccccc2c1C(=O)c1cc(I)c(O)c(I)c1 ) has RBC equal to 621

GET /value?item= CC(C)(S)[C@@H](N)C(=O)O &field=RBC returns 639.6

Required: RBC, one value per molecule below.
1. Oc1ncnc2[nH]ncc12
2. CCSCC[C@H](N)C(=O)O
3. CN1C(=O)OC(C)(C)C1=O
4. C#C[C@]1(O)CC[C@H]2[C@@H]3CCc4cc(O)ccc4[C@H]3CC[C@@]21C
5. CCN1CCCC1CNC(=O)c1cc(S(N)(=O)=O)ccc1OC (stereo unspecified) [SULPIRIDE]
6. C[C@]12CCC(=O)C=C1CC[C@@H]1[C@@H]2CC[C@@]2(C)[C@H]1CC[C@]2(C)O

[A]
[641.2, 632.8, 616.4, 604.8, 639.8, 616.6]

Provide each entry's RBC from the list below.
1. O=C(O)c1cccnc1
2. CC(=N)S [THIOACETAMIDE]
3. CC(C)C(=O)Nc1ccc([N+](=O)[O-])c(C(F)(F)F)c1 [FLUTAMIDE]

[A]
1: 630; 2: 611.6; 3: 604.2
